test system: CAKI-1 renal; test: NCI tumour cell line growth inhibition, 48 h
Recorded TGI by entry
readout-kind: TGI

- OC(c1nc2ccccc2s1)(C(F)(F)F)C(F)(F)F: > 100 µM
- COc1ccc(C(=O)C(c2ccc(OC)cc2)C2(O)C(=O)Nc3ccccc32)cc1 (stereo not given): > 100 µM
- O=C(Nc1cc(C(=O)Nc2cccc(S(=O)(=O)O)c2)cc(C(=O)Nc2cccc(S(=O)(=O)O)c2)c1)c1cccc(C(=O)Nc2cc(C(=O)Nc3cccc(S(=O)(=O)O)c3)cc(C(=O)Nc3cccc(S(=O)(=O)O)c3)c2)c1: > 100 µM
- CC(=O)C1C(=O)C(=O)N(c2cccc(C)c2C)C1=O (stereo not given): > 100 µM
- O=S1c2ccccc2N=C(c2ccc3ccccc3c2)CC1C1=CC=CCC1 (stereo not given): 29.6 µM

###

test system: LXFL 529 NSCLC; assay: NCI tumour cell line growth inhibition, 48 h
Recorded TGI by entry
readout-kind: TGI

- O=c1/c(=C/c2cccc([N+](=O)[O-])c2)sc2nc3ccccc3n12: > 100 µM
- Cc1c(Cl)ccc2c1NC(=O)C2(O)C(C(=O)c1ccccc1)c1ccccc1 (stereo not drawn): > 100 µM
- O=S1c2ccccc2N=C(c2ccc3ccccc3c2)CC1C1=CC=CCC1 (stereo not drawn): 29.7 µM
- CCOC(=O)/C(O)=C(/c1n[nH]c(=O)c2ccccc12)[N+](=O)[O-]: > 100 µM
- O=S(=O)(/C=C/c1ccc(Cl)cc1Cl)Cc1ccccc1CS(=O)(=O)/C=C/c1ccc(Cl)cc1Cl: > 100 µM
- COc1ccc2c(c1)c(=O)c1ccccc1n2/C=C/C(=O)O: > 100 µM
- O=C(O)C(CP(=O)(O)O)=C(Cl)Cl: > 100 µM
- COc1ccc(N2C(=O)C3c4[nH]c5ccc(OC)cc5c4C4CCC(C(C)(C)C)CC4C3C2=O)cc1 (stereo not drawn): 65.2 µM
- COC(=O)/C=C1/CCC2[C@@H](C(=O)CC3[C@]2(C)CCC[C@@]3(C)C(=O)OC)C1C (stereo partly drawn): 20.8 µM
- CN(C)CCNC(=O)c1cc2ccccc2c2nc3ccccc3nc12: > 22.3 µM
- COc1cccc(-c2cc(=O)c3cc(OC)c(OC)cc3[nH]2)c1: > 100 µM
- O=S1(=O)OCCOS(=O)(=O)C1I: > 100 µM
- O=S(=O)(O)O.[NH-]C1CCCCC1[NH-].[Pt+2] (stereo not drawn): > 100 µM
- COc1ccc(C(=O)C(c2ccc(OC)cc2)C2(O)C(=O)Nc3ccccc32)cc1 (stereo not drawn): > 100 µM
- Cc1[nH]c2ccccc2c1C1Cc2ccccc2N1C(=O)/C=C/C=C/c1ccccc1 (stereo not drawn): > 100 µM
- C/C(=C\C(C)COCc1ccccc1)[C@H](COCc1ccccc1)OCc1ccccc1 (stereo partly drawn): > 100 µM
- N#C[S-].[Nd+3].c1cnc2c(c1)ccc1cccnc12.c1cnc2c(c1)ccc1cccnc12.c1cnc2c(c1)ccc1cccnc12: 14.8 µM
- COc1cc(C2=NN(C)C(c3ccc([N+](=O)[O-])o3)C2)cc(OC)c1OC (stereo not drawn): > 100 µM

###

Recorded TGI by entry
test system: HL-60(TB) leukemia; assay: NCI tumour cell line growth inhibition, 48 h
readout-kind: TGI

• C=CCCC(OCOCCOC)c1cc(C)c(O[Si](C)(C)C(C)(C)C)c(C)c1 (stereo not given) = 19.5 µM
• COc1cc(N(CCC#N)CCC#N)ccc1/C=C1\SC(=S)NC1=O = > 100 µM
• O=C1C=CC2(O[C@H](c3ccccc3)[C@@H](c3ccccc3)O2)C(SC(=O)c2ccccc2)C1 (stereo not given in full) = 7.7 µM
• CCOc1cccc(/C=N/NC(=O)c2ccc(Nc3ccnc(C(F)(F)F)c3)cc2)c1O = 5.47 µM
• Cc1cc(NC(=S)Nc2ccccc2)c(NC(=S)Nc2ccccc2)cc1C = 5.23 µM
